The origin of these recorded values is patent US20180201614A1.

- assayTarget: EGFR Wt (Homo sapiens, UniProt P00533)
- Sequence (P00533 25-1210): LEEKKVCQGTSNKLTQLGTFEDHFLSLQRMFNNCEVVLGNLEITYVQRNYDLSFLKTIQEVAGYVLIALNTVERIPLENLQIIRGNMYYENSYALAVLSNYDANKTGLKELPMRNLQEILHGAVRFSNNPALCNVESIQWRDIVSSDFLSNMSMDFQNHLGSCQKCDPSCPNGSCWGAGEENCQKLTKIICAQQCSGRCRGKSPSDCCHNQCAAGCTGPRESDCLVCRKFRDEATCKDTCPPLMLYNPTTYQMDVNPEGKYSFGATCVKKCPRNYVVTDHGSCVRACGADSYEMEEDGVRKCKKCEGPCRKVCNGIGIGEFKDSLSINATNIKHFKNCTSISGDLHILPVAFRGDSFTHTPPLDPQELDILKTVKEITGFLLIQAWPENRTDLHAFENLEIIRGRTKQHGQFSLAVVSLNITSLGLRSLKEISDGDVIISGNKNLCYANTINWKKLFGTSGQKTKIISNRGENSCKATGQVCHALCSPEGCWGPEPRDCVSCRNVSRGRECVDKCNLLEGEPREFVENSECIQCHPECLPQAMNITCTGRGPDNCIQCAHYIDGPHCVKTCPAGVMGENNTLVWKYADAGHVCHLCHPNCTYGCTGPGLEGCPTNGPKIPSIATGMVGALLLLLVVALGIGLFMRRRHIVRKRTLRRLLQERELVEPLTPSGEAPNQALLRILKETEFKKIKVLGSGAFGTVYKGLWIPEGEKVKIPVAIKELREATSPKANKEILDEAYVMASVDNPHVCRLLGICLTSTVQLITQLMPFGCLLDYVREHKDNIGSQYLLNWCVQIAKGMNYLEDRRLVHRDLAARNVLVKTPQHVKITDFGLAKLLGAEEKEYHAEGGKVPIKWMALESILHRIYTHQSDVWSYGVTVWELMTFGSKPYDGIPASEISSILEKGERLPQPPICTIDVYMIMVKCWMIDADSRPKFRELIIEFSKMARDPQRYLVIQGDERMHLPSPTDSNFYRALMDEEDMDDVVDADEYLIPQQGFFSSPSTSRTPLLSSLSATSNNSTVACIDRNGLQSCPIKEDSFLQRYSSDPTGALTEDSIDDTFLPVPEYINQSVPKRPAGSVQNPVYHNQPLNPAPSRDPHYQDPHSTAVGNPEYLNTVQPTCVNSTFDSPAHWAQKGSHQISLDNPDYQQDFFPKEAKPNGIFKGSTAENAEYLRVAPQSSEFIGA
resultType: IC50

INSERT INTO measurements (compound, reportedmeasurement) VALUES
  ('C=CC(=O)N[C@@H]1CN(c2nc(Nc3cn(C)nc3OC)c3ncn(C45CC(C4)C5)c3n2)C[C@H]1F (racemic)', '≤ 10 nM'),
  ('C=CC(=O)N[C@@H]1CN(c2nc(Nc3cn(CCN(C)C)nc3OC)c3ncc(C)n3n2)C[C@H]1F', '≤ 10 nM');

Let us move to another entry and its IC50.
Q. Under EGFR Wt (Homo sapiens, UniProt P00533): IC50 value of `C=CC(=O)N[C@@H]1CN(c2nc(Nc3cn(C4CCN(C)CC4)nc3OC)c3ncc(C)n3n2)C[C@H]1F` ?
A. ≤ 10 nM
